- Target Of Assay: Thyrotropin receptor (Homo sapiens)
- Experimental Details: qHTS assay to identify small molecule antagonists of the thyroid stimulating hormone receptor (TSHR) signaling pathway (AID 1259385); note: % is set by controls: 0 for no effect and ±100 for the full control effect; nearly all actives have a fitted effect of over 20% in size
- Cond: TSHR-HEK293 cAMP HTRF, TSH-stimulated antagonist mode; series mostly up to 92.4 µM
Results filed as inconclusive are left out. Activity calls are given as the source filed them. Calls come from the whole dose curve.
Measured Metric: activity change, negative = inhibition

Example compounds with recorded activity change, negative = inhibition:
Compound	Reported Value
COC(=O)c1cc(Cl)c(NC(C)=O)cc1OC	inactive
C=CC(=O)CC	inactive
CC/C=C/CCCCCCCCCCOC(C)=O	inactive
CCCCCCCOC(C)=O	inactive
N=C(N)S(=O)O	inactive

Input: Write down measured activity change, negative = inhibition (Thyrotropin receptor (Homo sapiens)) for this compound. `CNC(C)=O`
Output: inactive

Input: Write down measured activity change, negative = inhibition (Thyrotropin receptor (Homo sapiens)) for this compound. `CCCCCCCCCCCCCCCC(=O)OC`
Output: 1.93% [at 19 µM] (inactive)

====

- Target Of Assay: Retinoic acid receptor RXR-alpha (Homo sapiens)
- Experimental Details: qHTS assay to identify small molecule agonists of the RXR signaling pathway (AID 1159527); note: potency is the fitted concentration of half-maximal effect; nearly all actives have a fitted effect of over 35% in size
- Cond: HEK293T RXRa-UAS-bla, beta-lactamase ratio, 16 h; series mostly up to 76.8 µM
Inconclusive results are not listed. Active and inactive are the calls of the source. The call rests on the fitted dose curve.
Measured Metric: Potency

Example compounds with recorded Potency:
Compound	Target Of Assay	Reported Value
CCCCCC(CC)OC(=O)CCCOc1ccc(Cl)cc1Cl (stereo not given)	Retinoic acid receptor RXR-alpha (Homo sapiens)	4.35 µM (active)
O=Cc1ccccc1S(=O)(=O)O	Retinoic acid receptor RXR-alpha (Homo sapiens)	9.77 µM (active)
CCCCCCC(O)CO (stereo not given)	Retinoic acid receptor RXR-alpha (Homo sapiens)	12.3 µM (active)
C=CCOC(=O)CCCCCCCC	Retinoic acid receptor RXR-alpha (Homo sapiens)	17.5 µM (active)

Read the next record carefully.
Input: Fill in reported Potency for this entry: `C/C=C(\C)C(=O)OC/C=C(\C)CCC=C(C)C`
Output: 21.9 µM (active)

====

- Experimental Details: qHTS RealTime-Glo MT Cell Viability Assay in HEK293 cells - 32 hour (AID 1224868); note: top concentration of the series differs between compounds; % is set by controls: 0 for no effect and ±100 for the full control effect; nearly all actives have a fitted effect of over 50% in size
- Cond: RealTime-Glo luminescence; series mostly up to 76.8 µM
Inconclusive results are not listed. Active and inactive are the calls of the source. Calls come from the whole dose curve; as a rule, active = well fitted cell-killing curve with a large enough effect in the repeat runs; inconclusive = weak or mixed curves, or effect the other way; inactive = flat fitted curve, though single readings scatter.
Measured Metric: activity change, negative = cytotoxic

Example compounds with recorded activity change, negative = cytotoxic:
CCCCCCCCCCCCCC(=O)OCC inactive
Cc1cc(C)c(C)c(C)c1 inactive
N=C(N)S(=O)O inactive
CC(C)(C)C(=O)CCc1ccc(Cl)cc1 inactive
CCCCCCCCCCCCCCCCN(C)C 5.99% [at 6.97 µM] (inactive)

Input: Fill in reported activity change, negative = cytotoxic for this entry: `CCOCCOCCOC(C)=O`
Output: inactive

Input: Fill in reported activity change, negative = cytotoxic for this entry: `CNC(C)=O`
Output: inactive

Input: Fill in reported activity change, negative = cytotoxic for this entry: `CC(C)(C)C(=O)NCCCC(=O)O`
Output: inactive

Input: Fill in reported activity change, negative = cytotoxic for this entry: `Cc1ccccc1C#N`
Output: inactive

====

- Experimental Details: qHTS assay to identify small molecule agonists of the endoplasmic reticulum stress response signaling pathway - cell viability counter screen (AID 1159517);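 note: HeLa cells carrying an ER stress response element beta-lactamase reporter; % is set by controls: 0 for no effect and ±100 for the full control effect; nearly all actives have a fitted effect of over 50% in size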
- Cond: ESRE-bla HeLa viability, CellTiter-Glo luminescence, 5 h; series mostly up to 61 µM
Results filed as inconclusive are left out. Activity calls are given as the source filed them. Calls come from the whole dose curve. Non-standard residues stand in square brackets, D forms with d. Residues, ends and D or L forms follow the SMILES beside them. *: point of attachment. Sta = CC(C)C[C@H](N)[C@@H](O)CC(=O)O; Isovaleryl = CC(C)CC(=O)*
Measured Metric: activity change, negative = cytotoxicity

Example molecules with recorded activity change, negative = cytotoxicity:
Molecule	activity change, negative = cytotoxicity
O=C1Nc2ccccc2C1=O	inactive
CC(=O)O[C@@H]1CC2C3CCc4cc(OC(=O)c5ccccc5)ccc4C3CCC2(C)[C@H]1OC(C)=O (stereo not given in full)	inactive
Cc1ccc2cccnc2c1	inactive
CCN1CCN(C(=O)N[C@@H](C(=O)N[C@@H]2C(=O)N3[C@@H]2SC(C)(C)[C@H]3C(=O)O)c2ccccc2)C(=O)C1=O	inactive
COC(=O)C(c1ccccc1Cl)N1CCc2sccc2C1 (stereo not given)	inactive
CC(C)CC(=O)N[C@H](C(=O)N[C@H](C(=O)N[C@@H](CC(C)C)[C@@H](O)CC(=O)N[C@@H](C)C(=O)N[C@@H](CC(C)C)[C@@H](O)CC(=O)O)C(C)C)C(C)C (Isovaleryl-VV[Sta]A[Sta]-OH)	inactive

Input: Fill in reported activity change, negative = cytotoxicity for this entry: `CN1CCN(C(=O)C2CCCCC2)CC1`
Output: inactive

====

- Experimental Details: qHTS assay for small molecule agonists of the antioxidant response element (ARE) signaling pathway - cell viability counter screen (AID 743203); note: % is set by controls: 0 for no effect and ±100 for the full control effect; nearly all actives have a fitted effect of over 55% in size
- Cond: ARE-bla HepG2 viability, CellTiter-Glo luminescence, 16 h; series mostly up to 73.3 µM
- Text: National Center for Advancing Translational Sciences [NCATS] NIH Chemical Genomics Center [NCGC] U.S. Environmental Protection Agency [EPA] National Institutes of Environmental Health Sciences [NIEHS] National Toxicology Program [NTP] U.S. Food and Drug Administration [FDA] Oxidative stress has been implicated in the pathogenesis of a variety of diseases ranging from cancer to neurodegeneration. […] The activation of the report gene under culture conditions can be detected by fluorescence intensity. […]
Inconclusive results are not listed. Activity calls are given as the source filed them. The call rests on the fitted dose curve.
Measured Metric: viability change, negative = cytotoxic

Compound	viability change, negative = cytotoxic
N#Cc1ccccc1C#N	inactive
CC(=O)c1ccc2ccc3ccccc3c2c1	inactive
NCC1CCC(C(=O)Oc2ccc(CCC(=O)O)cc2)CC1 (centres undefined)	inactive
COc1cc(S(N)(=O)=O)cc(C(=O)O)c1OC	inactive
Cc1ccc(N)nc1	inactive
CCCCCCCCCCCCCCCC/C=C/C1CC(=O)OC1=O (centres undefined)	inactive
CC(C)(O)CCCC1=CCC(C=O)CC1 (centres undefined)	inactive
CC(=O)OCC(=O)[C@@]1(O)CC[C@H]2[C@@H]3CCC4=CC(=O)C=C[C@]4(C)[C@H]3[C@@H](O)C[C@@]21C	inactive

Input: Fill in reported viability change, negative = cytotoxic for this entry: `Cc1ccc(O)c([N+](=O)[O-])c1`
Output: inactive

Input: Fill in reported viability change, negative = cytotoxic for this entry: `CCN(CC)CC`
Output: inactive

Input: Fill in reported viability change, negative = cytotoxic for this entry: `Cc1ccc2ccccc2n1`
Output: inactive

Input: Fill in reported viability change, negative = cytotoxic for this entry: `CCCCCCCCCCCCCCCCN(C)C`
Output: 8.57% [at 8.36 µM] (inactive)

Input: Fill in reported viability change, negative = cytotoxic for this entry: `CN(C)CCc1c[nH]c2ccc(C[C@H]3COC(=O)N3)cc12`
Output: inactive

Input: Fill in reported viability change, negative = cytotoxic for this entry: `CCCCCCCCS(=O)(=O)O`
Output: inactive

Input: Fill in reported viability change, negative = cytotoxic for this entry: COc1cc(C(=O)NC2CCCNC2)cc(OC)c1OC (centres undefined)
Output: inactive

Input: Fill in reported viability change, negative = cytotoxic for this entry: `C[C@]12C=CC(=O)C=C1[C@@H](F)C[C@@H]1[C@@H]2[C@@H](O)C[C@@]2(C)[C@H]1CC[C@]2(O)C(=O)CO`
Output: inactive

Input: Fill in reported viability change, negative = cytotoxic for this entry: `C[C@@H]1CC[C@@]2(OC1)O[C@H]1C[C@H]3[C@@H]4CC[C@H]5C[C@@H](O)CC[C@]5(C)[C@H]4CC(=O)[C@]3(C)[C@H]1[C@@H]2C`
Output: 3.19% [at 8.36 µM] (inactive)

Input: Fill in reported viability change, negative = cytotoxic for this entry: `CCc1ccc(CC)cc1`
Output: inactive

Input: Fill in reported viability change, negative = cytotoxic for this entry: CC(=O)SCC(CC(=O)c1ccc(C)cc1)C(=O)O (centres undefined)
Output: inactive

====

- Experimental Details: qHTS assay to identify small molecule antagonists of the retinoid-related orphan receptor gamma (ROR-gamma) signaling pathway - cell viability counter screen (AID 1159520); note: % is set by controls: 0 for no effect and ±100 for the full control effect; nearly all actives have a fitted effect of over 50% in size
- Cond: Tet-on RORgamma CHO cells viability, ATP luminescence, 16 h; series mostly up to 92.4 µM
Results filed as inconclusive are left out. The source made the active and inactive calls. Calls follow the shape of the dose curve; as a rule, active = well fitted cell-killing curve with a large enough effect in the repeat runs; inconclusive = weak or mixed curves, or effect the other way; inactive = no such curve, though single readings can be large or run the other way.
Measured Metric: activity, negative = cytotoxicity

Molecule	activity, negative = cytotoxicity
Cc1ccc(O)c([N+](=O)[O-])c1	inactive
C=C(C)C(=O)OCCCC	inactive
NC(=O)CC[C@@H](N)C(=O)O	inactive
CCCC(=O)OC	inactive
CCN(CC)CC(=O)Oc1ccc(NC(C)=O)cc1	inactive

Input: Fill in reported activity, negative = cytotoxicity for this entry: `CCO/C=C1\N=C(c2ccccc2)OC1=O`
Output: inactive

Input: Fill in reported activity, negative = cytotoxicity for this entry: CC(=O)/C=C/C=C1/C2CCC(C2)C1(C)C (stereo unspecified)
Output: inactive

Input: Fill in reported activity, negative = cytotoxicity for this entry: `C[C@H]1COc2c(C3(N)CC3)c(F)cc3c(=O)c(C(=O)O)cn1c23`
Output: inactive
